tested.system: phosphorylated active hERK2 enzyme (Homo sapiens (Human))
Sequence (P28482 whole entry): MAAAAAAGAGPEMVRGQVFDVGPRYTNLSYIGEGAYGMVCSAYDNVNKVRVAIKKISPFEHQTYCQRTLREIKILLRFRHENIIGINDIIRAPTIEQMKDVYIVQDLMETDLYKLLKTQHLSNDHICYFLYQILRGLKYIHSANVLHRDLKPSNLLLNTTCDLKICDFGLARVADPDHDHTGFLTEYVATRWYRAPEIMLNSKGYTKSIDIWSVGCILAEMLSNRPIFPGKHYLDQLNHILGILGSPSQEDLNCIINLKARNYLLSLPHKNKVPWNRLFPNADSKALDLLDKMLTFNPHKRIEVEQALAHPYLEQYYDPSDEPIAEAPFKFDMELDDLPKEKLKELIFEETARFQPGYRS
condition.parameters: read-out: ERK2 IC50; IMAP-FP assay; 0.5 nM hERK2, 30 μM ATP; 10 point titration, 3 μM starting concentration
Recorded IC50 values for a group of compounds are listed next.
value.kind: IC50 (nM)

> print(dat)
                                    compound  quantitative.readout
 1  Cc1cc(-n2ncc3cc(NC(=O)NCc4cccc(-c5ccon5)c4)ncc32)ccn1 [Example 98]                  1.68
 2  CC(=O)NCc1nc(NC(=O)N[C@H](C)c2ccccc2)cc2cnn(-c3ccc(F)cc3)c12 [Example 325]                   289
 3  Cc1cc(-n2ncc3cc(NC(=O)N[C@H]4CN(C)C[C@@H]4Oc4ccccc4)ncc32)ccn1 [Example 158]                  20.5
 4  Cc1cc(-n2ncc3cc(NC(=O)NCCN4CCOCC4)ncc32)ccn1 [Example 109]                   627
 5  COC(=O)NCc1nc(NC(=O)N[C@H](C)c2ccccc2)cc2cnn(-c3ccc(F)cc3)c12 [Example 326]                  17.6
 6  Cc1cc(-n2ncc3cc(NC(=O)N[C@@H]4[C@@H](c5ccccc5)CN(C)C45COC5)ncc32)ccn1 [Example 184]                   873
 7  O=C(NCc1ccccc1)Nc1cc2cnn(-c3ccc(F)cc3)c2cn1 [Example 37]                  19.8
 8  Cc1cc(-n2ncc3cc(NC(=O)N[C@H]4[C@H](c5ccccc5C)CN(C)C4(C)C)ncc32)ccn1 [Example 102]                   235
 9  Cc1cc(-n2ncc3cc(NC(=O)N[C@H]4CN(C)C[C@@H]4c4ccccc4Cl)ncc32)ccn1 [Example 16]                 0.952
10  C[C@@H](NC(=O)Nc1cc2cnn(-c3ccc(F)cc3)c2c(CO)n1)c1ccccc1 [Example 240]                  40.1
11  Cc1cc(-n2ncc3cc(NC(=O)N[C@@H]4CN(C)[C@H](C)[C@H]4c4ccccc4C)ncc32)ccn1 [Example 106]                  1.52
12  Cc1cc(-n2ncc3cc(NC(=O)NC4CC(=O)Nc5ccccc54)ncc32)ccn1 (centres unmarked) [Example 80]                   196
13  C=CC(=O)NCc1nc(NC(=O)N[C@H](C)c2ccccc2)cc2cnn(C)c12 [Example 324]                   432
14  Cc1cc(-n2ncc3cc(NC(=O)NC4(C#N)CC4)ncc32)ccn1 [Example 121]                  1810
15  Cc1cc(-n2ncc3cc(NC(=O)NC4CCOc5ccccc54)ncc32)ccn1 (centres unmarked) [Example 172]                  40.7
16  C[C@@H](NC(=O)Nc1cc2cnn(CC3COC3)c2c(CO)n1)c1ccccc1 [Example 315]                   143
17  C[C@H](NC(=O)Nc1cc2cnn(-c3ccc(F)cc3)c2cn1)c1ccccn1 [Example 221]                  1790
18  CO[C@@H]1CN(C)C[C@H]1NC(=O)Nc1cc2cnn(-c3ccnc(C)c3)c2cn1 [Example 194]                  47.7
19  CO[C@H]1CNC[C@@H]1NC(=O)Nc1cc2cnn(-c3ccnc(C)c3)c2cn1 [Example 132]                   168
20  Cc1cc(-n2ncc3cc(NC(=O)N[C@H]4CCCC[C@@H]4N(C)C)ncc32)ccn1 [Example 143]                   127
21  Cc1cc(-n2ncc3cc(NC(=O)N[C@@H]4CN(C)C[C@H]4c4cccnc4)ncc32)ccn1 [Example 112]                  48.7
22  Cc1cc(-n2ncc3cc(NC(=O)NCC4(c5ccccc5)CCOCC4)ncc32)ccn1 [Example 52]                  7.09
23  Cc1cc(-n2ncc3cc(NC(=O)N[C@H](C)c4ccc(F)c(Cl)c4)ncc32)ccn1 [Example 219]                  2.85
24  Cc1cc(-n2ncc3cc(NC(=O)NC4CC(c5ccccc5)CN(C)C4)ncc32)ccn1 (centres unmarked) [Example 290]                  17.8
25  Cc1cc(-n2ncc3cc(NC(=O)N[C@H](C)c4cccc(Cl)c4)ncc32)ccn1 [Example 43]                 0.952
26  Cc1cc(-n2ncc3cc(NC(=O)N[C@H]4CCC[C@H]4Cc4ccccc4)ncc32)ccn1 [Example 160]                  13.9
27  Cn1cc2cc(-n3ncc4cc(NC(=O)N[C@@H](c5ccccc5)C(C)(C)O)ncc43)ccc2n1 [Example 207]                  0.33
28  CCn1ncc2cc(NC(=O)N[C@H](C)c3ccccc3)nc(CO)c21 [Example 299]                  18.1
29  Cc1cc(-n2ncc3cc(NC(=O)NC4CNCC(c5ccccc5)C4)ncc32)ccn1 (centres unmarked) [Example 288]                  10.5
30  Cc1cc(-n2ncc3cc(NC(=O)NCC4CN(C(C)C(F)(F)F)C4)ncc32)ccn1 (centres unmarked) [Example 27]                   122
31  CCN1C[C@@H](NC(=O)Nc2cc3cnn(-c4ccnc(C)c4)c3cn2)[C@H](c2ccccc2)C1 [Example 200]                  20.6
32  Cc1cc(-n2ncc3cc(NC(=O)NC(C)c4csc(C)n4)ncc32)ccn1 (centres unmarked) [Example 123]                  24.8
